experiment: Acute toxicity LD50 in rats; settings: rat, in vivo, ip; intraperitoneal administration in rats
value.type: LD50

Query: # input compound: CC(C)(C)N(O)c1ccc(C(=O)Nc2nccs2)cc1 ; wanted: its LD50
Result: ≥ 750 mg/kg
